Numbers sourced from patent US8536187B2.

- Protocol notes: CC50 assay (CellTiter-Glo) in Huh-7 HCV replicon cells
- Type: cell-based
- Cond: human, Table 2, 3 days incubation
Could you please report measured CC50 at 3 days for the items listed next?

[[record]]
molecule = "CCC(=O)NS(=O)(=O)c1ccc(CNc2nc(NCC(F)(F)F)c3nc(-c4ccc(OC)c(S(C)(=O)=O)c4)ccc3n2)cc1 [Example 142]"
measured_parameter = "CC50 at 3 days"
endpoint_value = "> 10 µM"

[[record]]
molecule = "C[C@@H](Nc1nc(OC2CC2)c2nc(C#CC3CC3)ccc2n1)c1ccc(S(N)(=O)=O)cc1 [Example 32]"
measured_parameter = "CC50 at 3 days"
endpoint_value = "> 10 µM"

[[record]]
molecule = "C[C@@H](Nc1nc(NC2(C(F)(F)F)CC2)c2nc(-c3ccc(F)cc3)ccc2n1)c1ccc(S(N)(=O)=O)cc1 [Example 24]"
measured_parameter = "CC50 at 3 days"
endpoint_value = "> 10 µM"


IN: Which measured CC50 at 3 days value corresponds to COc1ccc(-c2ccc3nc(NCc4ccc(F)c(F)c4)nc(NC4(C(F)(F)F)CC4)c3n2)cc1S(C)(=O)=O [Example 44] ?
OUT: 1 to 10 µM

###

- Protocol notes: CC50 assay (CellTiter-Glo) in Huh-7 HCV replicon cells
- Type: cell-based
- Cond: human, Table 2, 3 days incubation
Measured parameter: CC50 at 3 days

Each molecule below has a recorded value; state its CC50 at 3 days.
1. CN1CCN(c2ccc(-c3ccc4nc(NCc5cccc(S(C)(=O)=O)c5)nc(NC5(C(F)(F)F)CC5)c4n3)cc2)C1=O [Example 50]
2. NS(=O)(=O)c1ccc(CNc2nc(NCC(F)(F)F)c3nc(-c4ccc(OC(F)F)nc4)ccc3n2)cc1 [Example 244]
3. FC(F)(F)C1(Nc2nc(NCc3ccc(-n4cncn4)cc3)nc3ccc(-c4ccc(NC5CC5)nc4)nc23)CC1 [Example 127]
4. CS(=O)(=O)c1cccc(-c2ccc3nc(NCc4ccc(-n5cncn5)cc4)nc(OC4CC4)c3n2)c1 [Example 188]
5. NS(=O)(=O)c1cc(CNc2nc(NCC(F)(F)F)c3nc(C#CC4CC4)ccc3n2)cc(C(F)(F)F)c1 [Example 278]
6. CS(=O)(=O)c1cc(-c2ccc3nc(NCc4ccc(-n5cncn5)cc4)nc(NCC(F)(F)F)c3n2)ccc1OC(F)F [Example 175]
7. C[C@@H](Nc1nc(NCC(F)(F)F)c2nc(C#CC3CC3)ccc2n1)c1ccc(S(N)(=O)=O)cc1 [Example 275]

OUT:
1. 1 to 10 µM
2. > 10 µM
3. 1 to 10 µM
4. > 10 µM
5. > 10 µM
6. > 10 µM
7. > 10 µM

###

- Protocol notes: CC50 assay (CellTiter-Glo) in Huh-7 HCV replicon cells
- Format: cell-based
- Cond: human, Table 2, 3 days incubation
Could you please report measured CC50 at 3 days for the items listed next?

Guide cases for CC50 at 3 days, answers given:
[[record]]
cpd_smiles = "C#Cc1ccc2nc(N[C@H](C)c3ccc(S(N)(=O)=O)cc3)nc(OC3(C)CC3)c2n1"
measured_parameter = "CC50 at 3 days"
endpoint_value = "1 to 10 µM"

[[record]]
cpd_smiles = "Nc1ccc(-c2ccc3nc(NCc4cccc(-n5cncn5)c4)nc(NC4(C(F)(F)F)CC4)c3n2)cn1"
measured_parameter = "CC50 at 3 days"
endpoint_value = "1 to 10 µM"

[[record]]
cpd_smiles = "CCOc1ccc(-c2ccc3nc(N[C@H](C)Cn4cncn4)nc(NCC(F)(F)F)c3n2)cn1"
measured_parameter = "CC50 at 3 days"
endpoint_value = "1 to 10 µM"

[[record]]
cpd_smiles = "CC1(Oc2nc(NCc3cc(Cl)cc(S(N)(=O)=O)c3)nc3ccc(C#CC4CC4)nc23)CC1"
measured_parameter = "CC50 at 3 days"
endpoint_value = "> 10 µM"

[[record]]
cpd_smiles = "CCOc1nc(NCc2ccc(-n3cncn3)cc2)nc2ccc(-c3cccc(S(C)(=O)=O)c3)nc12"
measured_parameter = "CC50 at 3 days"
endpoint_value = "> 10 µM"


Each compound below has a recorded value; state its CC50 at 3 days.
1. COc1ccc(-c2ccc3nc(NCc4ccc(S(N)(=O)=O)cc4)nc(NC4(C#N)CC4)c3n2)cn1
2. COc1ccc(-c2ccc3nc(NCc4cccc(S(C)(=O)=O)c4)nc(NC4(C(F)(F)F)CC4)c3n2)cc1S(C)(=O)=O

OUT:
1. > 10 µM
2. 1 to 10 µM

###

- Protocol notes: CC50 assay (CellTiter-Glo) in Huh-7 HCV replicon cells
- Format: cell-based
- Cond: human, Table 2, 3 days incubation
Could you please report measured CC50 at 3 days for the items listed next?

[[record]]
cpd_smiles = "NS(=O)(=O)c1cc(F)cc(CNc2nc(NC3(C(F)(F)F)CC3)c3nc(C#CC4CC4)ccc3n2)c1"
endpoint_value = "> 10 µM"


Each compound below has a recorded value; state its CC50 at 3 days.
1. NS(=O)(=O)c1cc(Cl)cc(CNc2nc(NC3(C(F)(F)F)CC3)c3nc(-c4ccc(C(=O)NC5(C(F)(F)F)CC5)cc4)ccc3n2)c1
2. COc1ccc(-c2ccc3nc(N[C@H](C)c4ccc(S(N)(=O)=O)cc4)nc(NCC(F)(F)F)c3n2)cc1S(C)(=O)=O
3. C[C@@H](Nc1nc(OC2(C)CC2)c2nc(C#CC3CC3)ccc2n1)c1ccc(S(N)(=O)=O)cc1
4. CC(C)Oc1nc(N[C@H](C)c2ccc(S(N)(=O)=O)cc2)nc2ccc(C#CC3CC3)nc12
5. COc1ccc(-c2ccc3nc(NCc4ccc(-n5cccn5)cc4)nc(NCC(F)(F)F)c3n2)cc1S(N)(=O)=O
6. CC#Cc1ccc2nc(N[C@H](C)c3ccc(S(N)(=O)=O)cc3)nc(OC3CCC3)c2n1
7. C#Cc1ccc2nc(N[C@H](C)c3ccc(S(N)(=O)=O)cc3)nc(OC3CC3)c2n1

OUT:
1 to 10 µM
1 to 10 µM
> 10 µM
> 10 µM
1 to 10 µM
> 10 µM
1 to 10 µM
